assay method text: Effects of food and parasite infection on absorption of N-251 after p.o. administration
Assay type: in vivo, mice
condition notes: ICR, mouse, plasma, po, 68 mg/kg, p.o. 68 mg/kg, P. berghei-infected (0.61%) fasted mice; read-out: Cmax

{"compound": "OCCCCCCC1COOC2(CCCCCCCCCCC2)OOC1 [N-251]", "Cmax / µg/mL": 1.77}

---

assay method text: PK analysis after p.o. administration of N-251 in fasted mice
Assay type: in vivo
condition notes: male, ICR, mouse, plasma, po, p.o. 100 mg/kg
Protocol: To analyze the absorption kinetics of N-251, it was orally administered to fasted mice with dose of 210, 100, 68, 50, and 30 mg/kg. Blood sample was collected at 15 and 30 min as well as 1, 1.5, 2, 3, 4, and 6 h post-dose. Data were expressed as the mean (n = 6) ± SD. AUC and MRT after p.o. administration in fasting mice were calculated based on the trapezoidal rule. F was calculated with an AUC of 10 mg/kg of i.v. dose. […]
property measured: Tmax

{"item smiles": "OCCCCCCC1COOC2(CCCCCCCCCCC2)OOC1", "result": "2 h"}

---

assay method text: PK analysis after i.v. administration of N-251 in fasted mice
Format: in vivo
condition notes: male, ICR, mouse, plasma, iv; i.v. 5 mg/kg, fasted mice
property measured: k el

{"molecule": "OCCCCCCC1COOC2(CCCCCCCCCCC2)OOC1 [N-251]", "result": "0.000369 s⁻¹"}

---

assay method text: PK analysis after p.o. administration of N-251 in fasted mice
Type: in vivo
condition notes: male, ICR, mouse, plasma, po, p.o. 210 mg/kg, 0 to infinity

{"compound": "OCCCCCCC1COOC2(CCCCCCCCCCC2)OOC1 [N-251]", "unit": "ng·h/mL", "AUC": 15200}

---

assay method text: PK analysis after p.o. administration of N-251 in fasted mice
Type: in vivo
condition notes: male, ICR, mouse, plasma, po, p.o. 30 mg/kg, 0 to infinity

{"compound": "OCCCCCCC1COOC2(CCCCCCCCCCC2)OOC1 [N-251]", "unit": "ng·h/mL", "AUC": 1570}

---

assay method text: PK analysis after i.v. administration of N-251 in fasted mice
Assay type: in vivo
condition notes: male, ICR, mouse, plasma, iv; i.v. 5 mg/kg, fasted mice; read-out: CLtotal (converted)
Experimental: We used healthy 5-week-old ICR male mice that were subjected to overnight fasting since the night a day before the test. To analyze N-251 after i.v. administration, doses of 25, 10, and 5 mg/kg were used for each group. The blood sample was collected at 2, 5, 15, and 30 min as well as 1, 2, 4, and 6 h post-dose, and a single blood sample was collected from a single mouse. […] Data were expressed as mean (n = 6) ± standard deviation (SD). […]

{"item smiles": "OCCCCCCC1COOC2(CCCCCCCCCCC2)OOC1", "clearance / mL/min/kg": 71.7}

---

assay method text: Effects of food and parasite infection on absorption of N-251 after p.o. administration
Assay type: in vivo, mice
condition notes: ICR, mouse, plasma, po, 68 mg/kg, p.o. 68 mg/kg, P. berghei-infected (0.61%) fasted mice

{"molecule": "OCCCCCCC1COOC2(CCCCCCCCCCC2)OOC1 [N-251]", "unit": "ng·h/mL", "AUC": 3270}

---

assay method text: PK analysis after p.o. administration of N-251 in fasted mice
Type: in vivo
condition notes: male, ICR, mouse, plasma, po, p.o. 210 mg/kg
property measured: Cmax (ng/mL)

{"item smiles": "OCCCCCCC1COOC2(CCCCCCCCCCC2)OOC1", "measured number": 4890}

---

assay method text: PK analysis after i.v. administration of N-251 in fasted mice
Format: in vivo
condition notes: male, ICR, mouse, other: i.v. and p.o. administration; i.v. and p.o. administration, plasma; read-out: half-life
Procedure: We used healthy 5-week-old ICR male mice that were subjected to overnight fasting since the night a day before the test. To analyze N-251 after i.v. administration, doses of 25, 10, and 5 mg/kg were used for each group. The blood sample was collected at 2, 5, 15, and 30 min as well as 1, 2, 4, and 6 h post-dose, and a single blood sample was collected from a single mouse. […] Data were expressed as mean (n = 6) ± standard deviation (SD). […]

{"item smiles": "OCCCCCCC1COOC2(CCCCCCCCCCC2)OOC1", "half-life": "< 2 h"}

---

assay method text: PK analysis after i.v. administration of N-251 in fasted mice
Type: in vivo
condition notes: male, ICR, mouse, plasma, iv; i.v. 25 mg/kg, fasted mice; read-out: Vdss

{"item smiles": "OCCCCCCC1COOC2(CCCCCCCCCCC2)OOC1", "unit": "L/kg", "Vd": 2.88}

---

assay method text: PK analysis after p.o. administration of N-251 in fasted mice
Type: in vivo
condition notes: male, ICR, mouse, plasma, po, p.o. 68 mg/kg, 0 to infinity
Experimental: To analyze the absorption kinetics of N-251, it was orally administered to fasted mice with dose of 210, 100, 68, 50, and 30 mg/kg. Blood sample was collected at 15 and 30 min as well as 1, 1.5, 2, 3, 4, and 6 h post-dose. Data were expressed as the mean (n = 6) ± SD. AUC and MRT after p.o. administration in fasting mice were calculated based on the trapezoidal rule. F was calculated with an AUC of 10 mg/kg of i.v. dose. […]

{"item smiles": "OCCCCCCC1COOC2(CCCCCCCCCCC2)OOC1", "unit": "ng·h/mL", "AUC": 3770}

---

assay method text: Effects of food and parasite infection on absorption of N-251 after p.o. administration
Type: in vivo, mice
condition notes: ICR, mouse, plasma, po, 68 mg/kg, p.o. 68 mg/kg, normal-fed mice
property measured: Tmax (h)

{"item smiles": "OCCCCCCC1COOC2(CCCCCCCCCCC2)OOC1", "property measured": "Tmax", "measured number": 1.5}

---

assay method text: PK analysis after i.v. administration of N-251 in fasted mice
Assay type: in vivo
condition notes: male, ICR, mouse, plasma, iv; i.v. 10 mg/kg, fasted mice
property measured: AUC (ng·h/mL)

{"item smiles": "OCCCCCCC1COOC2(CCCCCCCCCCC2)OOC1", "unit": "ng·h/mL", "measured number": 2430}

---

assay method text: PK analysis after i.v. administration of N-251 in fasted mice
Format: in vivo
condition notes: male, ICR, mouse, plasma, iv; i.v. 10 mg/kg, fasted mice; read-out: Vdss

{"molecule": "OCCCCCCC1COOC2(CCCCCCCCCCC2)OOC1 [N-251]", "Vd": "3.93 L/kg"}

---

assay method text: PK analysis after p.o. administration of N-251 in fasted mice
Assay type: in vivo
condition notes: male, ICR, mouse, plasma, po, p.o. 210 mg/kg

{"molecule": "OCCCCCCC1COOC2(CCCCCCCCCCC2)OOC1 [N-251]", "Tmax, h": 2}

---

assay method text: PK analysis after i.v. administration of N-251 in fasted mice
Type: in vivo
condition notes: male, ICR, mouse, plasma, iv; i.v. 25 mg/kg, fasted mice
property measured: k el (s⁻¹)

{"molecule": "OCCCCCCC1COOC2(CCCCCCCCCCC2)OOC1 [N-251]", "property measured": "k el", "unit": "s⁻¹", "measured number": 0.000686}

---

assay method text: PK analysis after i.v. administration of N-251 in fasted mice
Assay type: in vivo
condition notes: male, ICR, mouse, plasma, iv; i.v. 5 mg/kg, fasted mice; read-out: Vdss
Procedure: We used healthy 5-week-old ICR male mice that were subjected to overnight fasting since the night a day before the test. To analyze N-251 after i.v. administration, doses of 25, 10, and 5 mg/kg were used for each group. The blood sample was collected at 2, 5, 15, and 30 min as well as 1, 2, 4, and 6 h post-dose, and a single blood sample was collected from a single mouse. […] Data were expressed as mean (n = 6) ± standard deviation (SD). […]
property measured: Vd (L/kg)

{"compound": "OCCCCCCC1COOC2(CCCCCCCCCCC2)OOC1 [N-251]", "measured number": 4.85}

---

assay method text: PK analysis after p.o. administration of N-251 in fasted mice
Assay type: in vivo
condition notes: male, ICR, mouse, plasma, po, p.o. 30 mg/kg

{"molecule": "OCCCCCCC1COOC2(CCCCCCCCCCC2)OOC1 [N-251]", "Cmax [ng/mL]": 634}

---

assay method text: PK analysis after p.o. administration of N-251 in fasted mice
Assay type: in vivo
condition notes: male, ICR, mouse, plasma, po, p.o. 68 mg/kg
property measured: Cmax (ng/mL)

{"compound": "OCCCCCCC1COOC2(CCCCCCCCCCC2)OOC1 [N-251]", "property measured": "Cmax", "measured number": 1680}
